Assay: chemical genetic growth profiling, strain panel (AID 1159580);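 also: tested at 20 µM; growth read once vehicle control cultures reached saturation at 30 °C; 1 = growth at the plate median or of vehicle wells; lower values mean less growth of the strain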
Settings: S. cerevisiae deletion strains, growth OD, locus YNL250W, strain rad50, active compounds read low
In all, about 5,500 compounds went through this assay and about 2,000 (36%) were called active. Another 18% or so got no clear call; they are omitted. This is one part of the list.
# Fulfilled = normalized growth below 1 (exclusive); Not fulfilled = normalized growth at/above 1

INSERT INTO results (cpd_smiles, category) VALUES
  ('COc1ccc(-c2coc3cc(OC)ccc3c2=O)cc1', 'Fulfilled'),
  ('CCCCCCCCCCC[C@@H](C[C@H]1OC(=O)[C@H]1CCCCCC)OC(=O)[C@@H](CC(C)C)NC=O', 'Not fulfilled');

----------
Assay: chemical genetic growth profiling, strain panel (AID 1159580);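 also: tested at 20 µM; growth read once vehicle control cultures reached saturation at 30 °C; 1 = growth at the plate median or of vehicle wells; lower values mean less growth of the strain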
Conditions: S. cerevisiae deletion strains, growth OD, locus YLR221C, strain rsa3, active compounds read low
Hit rate of the full screen: of about 5,500 compounds, about 2,000 (36%) were called active. Another 18% or so got no clear call; they are omitted. The list shows a part of the results.
ENDPOINT_NAME: normalized growth

INSERT INTO results (molecule, data_value) VALUES
  ('NCCS(=O)(=O)O', 0.982),
  ('Clc1ccc(C(c2ccc(Cl)cc2)C(Cl)(Cl)Cl)cc1', 1.01),
  ('NCCCS(=O)(=O)O', 1.01),
  ('Cc1[nH]c2ccccc2c1CN(C)C', 1.01),
  ('COC(=O)C1=COC(OC2OC(CO)C(O)C(O)C2O)C2C(C)CC(=O)C12 (configuration not stated)', 1.03),
  ('COc1ccc(C(c2ccc(OC)cc2)C(Cl)(Cl)Cl)cc1', 0.981),
  ('COc1ccc(C(CN(C)C)C2(O)CCCCC2)cc1 (configuration not stated)', 1.01);

----------
Attribute: normalized growth
Test: chemical genetic growth profiling, strain panel (AID 1159580);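 also: tested at 20 µM; growth read once vehicle control cultures reached saturation at 30 °C; 1 = growth at the plate median or of vehicle wells; lower values mean less growth of the strain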
Conditions: S. cerevisiae deletion strains, growth OD, locus YMR078C, strain ctf18, active compounds read low
Hit rate of the full screen: of about 5,500 compounds, about 2,000 (36%) were called active. Not shown: some 18% with an inconclusive outcome. The list shows a part of the results.
ENDPOINT_NAME: normalized growth

INSERT INTO assay_data (molecule, data_value) VALUES
  ('C=CCc1ccc(OC(=O)c2ccccc2)c(OC)c1', 0.978),
  ('O=C(O)c1cc2cc(F)ccc2[nH]1', 1.02),
  ('CC[C@@H](C(=O)C(C)[C@@H](O)[C@H](C)CCc1ccc(C)c(O)c1C(=O)O)C1OC(CC)(C2CC[C@](O)(CC)[C@H](C)O2)C[C@@H]1C (stereo partly specified)', 1.06),
  ('NS(=O)(=O)c1cc2c(cc1Cl)NC=NS2(=O)=O', 0.984),
  ('CNC(=O)O/N=C(\C)SC', 0.985),
  ('Oc1cc(O)c2c(c1)O[C@H](c1ccc(O)c(O)c1)[C@H](O)C2', 0.977),
  ('COc1ccc(C(=O)CC(=O)O)c2c1C=CC(C)(C)O2', 0.977),
  ('CC(=O)O[C@H]1C[C@@H](OC(C)=O)C(C)(C)C2CC(=O)[C@]3(C)C(CC[C@@]4(C)[C@H](C(=O)O)OC(=O)C5OC543)[C@]21C (stereo partly specified)', 0.975),
  ('O=C(O)CCCc1ccccc1', 0.992),
  ('C/C=C(\C)C(=O)O[C@H]1C[C@@H](OC(C)=O)[C@@]2(C(=O)OC)CO[C@@H]3C2[C@]12CO[C@](O)(C(=O)OC)[C@H]2[C@](C)(C12O[C@@]1(C)[C@H]1C[C@@H]2OC2OC=C[C@@]21O)[C@@H]3O (stereo partly specified)', 0.963),
  ('CN1C2CCC1CC(OC(c1ccccc1)c1ccccc1)C2 (stereo unspecified)', 0.954),
  ('CC[C@@]1(O)C[C@H](O[C@H]2C[C@H](N(C)C)[C@H](O)[C@H](C)O2)c2c(cc3c(c2O)C(=O)c2c(O)ccc(O)c2C3=O)[C@H]1C(=O)OC', 0.147),
  ('O=c1cccc2ccc(O)c(O)c2c1O', 0.965),
  ('Oc1ccc2c(c1)O[C@H](c1ccc(O)c(O)c1)[C@@H](O)C2', 0.992),
  ('Oc1cc(O)c2c(c1)O[C@H](c1cc(O)c(O)c(O)c1)[C@H](O)C2', 1),
  ('COC(=O)[C@@H]1OC(=O)C2OC23[C@@]1(C)CCC1[C@]2(C)C(C[C@H](O)[C@]13C)C(C)(C)[C@H](OC(C)=O)C[C@@H]2OC(C)=O (stereo partly specified)', 1),
  ('Clc1ccc(C(OCCN2CCCCC2)c2ccccc2)cc1 (stereo unspecified)', 1),
  ('CN1CCC(OC(c2ccccc2)c2ccccc2)CC1', 0.98),
  ('O=C(O[C@@H]1Cc2c(O)cc(O)cc2O[C@@H]1c1ccc(O)c(O)c1)c1cc(O)c(O)c(O)c1', 1.02),
  ('COC(=O)c1cc(=O)c(O)c2c(O)c(O)ccc2c1', 0.943),
  ('O=C1NCC2(CCN(CCc3ccccc3)CC2)O1', 1),
  ('Oc1cc(O)c2c(c1)O[C@H](c1ccc(O)c(O)c1)[C@@H](O)C2', 0.984),
  ('CC[C@@]1(O)C[C@H](O)c2c(cc3c(c2O)C(=O)c2c(O)ccc(O)c2C3=O)[C@H]1C(=O)OC', 0.335),
  ('C#CCN(C)Cc1ccccc1', 1.02),
  ('COc1cc(OC)c2c(c1)O[C@H](c1cc(OC)c(OC)c(OC)c1)[C@H](OC(=O)c1cc(OC)c(OC)c(OC)c1)C2', 1),
  ('NCCCS(=O)(=O)O', 0.999),
  ('CC[C@H]1OC(=O)[C@H](C)[C@@H](O[C@H]2C[C@@](C)(OC)[C@@H](O)[C@H](C)O2)[C@H](C)[C@@H](O[C@@H]2O[C@H](C)C[C@H](N(C)C)[C@H]2O)[C@](C)(OC)C[C@@H](C)C(=O)[C@H](C)[C@@H](O)[C@]1(C)O', 1),
  ('CN1C2CCC1CC(OC(c1ccccc1)c1ccccc1N)C2 (stereo unspecified)', 1.02),
  ('CN1CC(=O)N=C1N', 1),
  ('N[C@@H](Cc1ccc(N(CCCl)CCCl)cc1)C(=O)O', 0.961),
  ('COc1cc([C@@H]2c3cc4c(cc3C(OC3O[C@@H]5COC(C)O[C@H]5[C@H](O)[C@H]3O)C3COC(=O)[C@@H]32)OCO4)cc(OC)c1O (stereo partly specified)', 0.996),
  ('C[n+]1c2cc(N)ccc2cc2ccc(N)cc21', 0.783),
  ('C[C@@H]1O[C@@H](O[C@H]2[C@H](Oc3cc(O)c4c(=O)cc(-c5ccc(O)cc5)oc4c3)O[C@H](CO)[C@@H](O)[C@@H]2O)[C@H](O)[C@H](O)[C@H]1O', 0.975),
  ('O=C(OCC(O)CO)c1ccccc1Nc1ccnc2cc(Cl)ccc12 (stereo unspecified)', 0.99),
  ('CCC1(O)CC(OC2CC(N(C)C)C(OC3CC(O)C(OC4CCC(=O)C(C)O4)C(C)O3)C(C)O2)c2c(cc3c(c2O)C(=O)c2c(O)cccc2C3=O)C1C(=O)OC (stereo unspecified)', 1.01),
  ('O=C(Oc1cc(O)cc2c1C[C@@H](OC(=O)c1cc(O)c(O)c(O)c1)[C@@H](c1cc(O)c(O)c(O)c1)O2)c1cc(O)c(O)c(O)c1', 0.938);
